assay_details: melting temperature; fluorescence melt of hairpins on a sequencing array, two-state fit, raised by 9.35 °C to match UV melts
stated_conditions: sodium 0.088 M
measured_attribute: Tm (°C)

[
  {
    "chain": "GGAAACGAAAGTTTATCC ((((((....)))..)))",
    "reading": 25.6
  },
  {
    "chain": "GCTTTCACGAAAGTGAGC (((..(((....))))))",
    "reading": 33.8
  },
  {
    "chain": "GCGGCCCCCGC ((((...))))",
    "reading": 56.6
  },
  {
    "chain": "GAAGTTGAAAAACTTC ((((((....))))))",
    "reading": 48.5
  },
  {
    "chain": "GATCCAGTGTGGATC ((((((...))))))",
    "reading": 51.6
  },
  {
    "chain": "GGGAGCGAAAGCTATCCC ((((((....)))..)))",
    "reading": 48
  },
  {
    "chain": "GCCCCACCGAAAGGTGGC (((..(((....))))))",
    "reading": 40.7
  },
  {
    "chain": "GCCTCCGAAAGGACCGGC ((((((....)))..)))",
    "reading": 43.1
  },
  {
    "chain": "CGAGCCGGAAACGGATCG (((.(((....))).)))",
    "reading": 61.7
  },
  {
    "chain": "CGCCACGGAAACGTAGCG (((.(((....))).)))",
    "reading": 50.1
  }
]

---

assay_details: melting temperature; fluorescence melt of hairpins on a sequencing array, two-state fit, raised by 9.35 °C to match UV melts
stated_conditions: sodium 0.088 M
Returns one of true or false; true when Tm is >= 40 °C.

[
  {
    "chain": "GTAGACACGAAAGTGTAC (((..(((....))))))",
    "class_name": "false"
  },
  {
    "chain": "GTAACGGAAACGTTAC ((((((....))))))",
    "class_name": "true"
  },
  {
    "chain": "GGAAACGAAAGTTTTTCC ((((((....)))..)))",
    "class_name": "false"
  },
  {
    "chain": "GATCCACAGGTGGATC ((((((....))))))",
    "class_name": "true"
  },
  {
    "chain": "GTCGACGGAAACGTTGGC (.(.(((....))).).)",
    "class_name": "true"
  },
  {
    "chain": "GTAACAGCGAAAGCTTAC (((..(((....))))))",
    "class_name": "false"
  },
  {
    "chain": "GCAGCTACGAAAGTATGC (((..(((....))))))",
    "class_name": "false"
  },
  {
    "chain": "GGTGCTCGAAAGAGTACC (((.(((....))).)))",
    "class_name": "true"
  },
  {
    "chain": "GAAAGAGAAATCTTTC ((((((....))))))",
    "class_name": "false"
  },
  {
    "chain": "GGATGGCCGAAAGGCTCC (((..(((....))))))",
    "class_name": "false"
  },
  {
    "chain": "GATCCGCTTCGGATC ((((((...))))))",
    "class_name": "true"
  }
]

---

Catalogue of folding enthalpy readings, one per entry.
assay_details: folding enthalpy; higher = less favourable; fluorescence melt of hairpins on a sequencing array, two-state fit
stated_conditions: sodium 0.088 M

[
  {
    "chain": "GATCCCGGGCGGGATC ((((((....))))))",
    "folding enthalpy": "-40.1 kcal/mol"
  },
  {
    "chain": "GGAAGGGGAAACCCTTTC (.(((((....))))).)",
    "folding enthalpy": "-24.2 kcal/mol"
  },
  {
    "chain": "GATCTTGGCAAAGATC ((((((....))))))",
    "folding enthalpy": "-38.9 kcal/mol"
  },
  {
    "chain": "GATCCGCCTACGGATC ((((((....))))))",
    "folding enthalpy": "-37.9 kcal/mol"
  },
  {
    "chain": "GAAGCAGGAAACTACTTC ((((.((....)).))))",
    "folding enthalpy": "-19 kcal/mol"
  },
  {
    "chain": "GGATACGGAAACGTACCC ((.((((....)))).))",
    "folding enthalpy": "-21.1 kcal/mol"
  },
  {
    "chain": "GATCTCGACCGAGATC ((((((....))))))",
    "folding enthalpy": "-51.9 kcal/mol"
  }
]

---

Catalogue of Tm readings, one per entry.
assay_details: melting temperature; fluorescence melt of hairpins on a sequencing array, two-state fit, raised by 9.35 °C to match UV melts
stated_conditions: sodium 0.088 M
measured_attribute: Tm (°C)

[
  {
    "chain": "GATCCTACGAAGGATC ((((((....))))))",
    "reading": 50.3
  },
  {
    "chain": "GAGTACCGAAAGGTTCTC (((.(((....))).)))",
    "reading": 47.9
  },
  {
    "chain": "GATCTAACGTAGATC ((((((...))))))",
    "reading": 36.1
  },
  {
    "chain": "GATCATGCAATGATC ((((((...))))))",
    "reading": 59.2
  },
  {
    "chain": "GCTCACGGAAACGTGGGC ((.((((....)))).))",
    "reading": 59.6
  },
  {
    "chain": "GCTACCGGAAACGGTAAC (.(((((....))))).)",
    "reading": 37.2
  },
  {
    "chain": "GATGGTGGAAACACCACC (.(((((....))))).)",
    "reading": 44.6
  },
  {
    "chain": "GTGGGCGGAAACGTCCGC (.((.((....)).)).)",
    "reading": 54.3
  },
  {
    "chain": "GATCGACATTTCGATC ((((((....))))))",
    "reading": 50.8
  },
  {
    "chain": "CGTACGGAAACGTCAACG ((((((....)))..)))",
    "reading": 32.2
  },
  {
    "chain": "GCTGTTGGAAACGACAGC (((((.(....).)))))",
    "reading": 54.7
  },
  {
    "chain": "GATCAAAAGATTGATC ((((((....))))))",
    "reading": 33.3
  },
  {
    "chain": "GCAATGCGAAAGCGTCGC ((.(.((....)).).))",
    "reading": 45.4
  },
  {
    "chain": "GATCGTCTATACGATC ((((((....))))))",
    "reading": 54.8
  },
  {
    "chain": "GAGCACGAAAGTGCGCTC ((((((....)))..)))",
    "reading": 67.2
  },
  {
    "chain": "GAACGAGGAAACTCATTC (((.(((....))).)))",
    "reading": 24.8
  },
  {
    "chain": "GCTGAACGAAAGTTGAGC (((.(((....))).)))",
    "reading": 48.7
  }
]

---

assay_details: folding enthalpy; higher = less favourable; fluorescence melt of hairpins on a sequencing array, two-state fit
stated_conditions: sodium 0.088 M

[
  {
    "chain": "GATAAACGAAAGTTAATC (((.(((....))).)))",
    "output_unit": "kJ/mol",
    "folding enthalpy": -66.9
  },
  {
    "chain": "GATCAACCTATTGATC ((((((....))))))",
    "output_unit": "kJ/mol",
    "folding enthalpy": -121
  },
  {
    "chain": "GATCGGGGTTCCGATC ((((((....))))))",
    "output_unit": "kJ/mol",
    "folding enthalpy": -154
  },
  {
    "chain": "GCCGAAGGAAACTCCGGC ((((.((....)).))))",
    "output_unit": "kJ/mol",
    "folding enthalpy": -117
  },
  {
    "chain": "GATCAAATCGTTGATC ((((((....))))))",
    "output_unit": "kJ/mol",
    "folding enthalpy": -128
  }
]

---

assay_details: melting temperature; fluorescence melt of hairpins on a sequencing array, two-state fit, raised by 9.35 °C to match UV melts
stated_conditions: sodium 0.088 M
Catalogue of Tm readings, one per entry.
measured_attribute: Tm (°C)

[
  {
    "chain": "GTTGACGGAAACGCCAAC ((((.((....)).))))",
    "measured_attribute": "Tm",
    "reading": 49.6
  },
  {
    "chain": "GAGTGTGGAAACACACTC (((((((....)))))))",
    "measured_attribute": "Tm",
    "reading": 66
  },
  {
    "chain": "GATCATGAATATGATC ((((((....))))))",
    "measured_attribute": "Tm",
    "reading": 54.5
  },
  {
    "chain": "GTACCCGAAAGGGCTTAC ((((((....)))..)))",
    "measured_attribute": "Tm",
    "reading": 27.1
  }
]
